system: iBMDM (immortalised mouse bone-marrow-derived macrophages), LPS-stimulated; assay: mitochondrial superoxide (MitoSOX fluorescence) fold increase over unstimulated control; higher = more LPS-induced mitochondrial ROS (less inhibition); conditions: inhibitor concentration: 500 nM; LPS: 100 ng/ml; time after LPS: 4 h
Structures can show the parent of a compound that is named as a salt.
PROPERTY: mitochondrial superoxide
Reply with the value as a number alone.

Below: 10 compounds and their reported mitochondrial superoxide.
[[record]]
compound = "C[C@@H]1COC(Nc2ccc3ncnc(Nc4ccc(OCc5nccs5)c(Cl)c4)c3c2)=N1"
property = "mitochondrial superoxide"
value = 1.69

[[record]]
compound = "CC(C)CCN1c2nc(Nc3cc(F)c(O)c(F)c3)ncc2N(C)C(=O)C1C (centres undefined)"
property = "mitochondrial superoxide"
value = 1.32

[[record]]
compound = "CN(C)C1CCN(C(=O)c2ccc(NC(=O)Nc3ccc(-c4nc(N5CCOCC5)nc(N5CCOCC5)n4)cc3)cc2)CC1"
property = "mitochondrial superoxide"
value = 1.58

[[record]]
compound = "C=CC(=O)Nc1cccc(Oc2nc(Nc3ccc(N4CCN(C)CC4)cc3OC)ncc2Cl)c1"
property = "mitochondrial superoxide"
value = 1.68

[[record]]
compound = "O=C(NCCCNc1nc(Nc2cccc(NC(=O)N3CCCC3)c2)ncc1I)c1cccs1"
property = "mitochondrial superoxide"
value = 1.13

[[record]]
compound = "CC(C)(C)n1nc(-c2ccc(Cl)cc2)c2c(N)ncnc21"
property = "mitochondrial superoxide"
value = 1.31

[[record]]
compound = "CC(C)CC(=O)Nc1n[nH]c2c1CN(C(=O)C1CCN(C)CC1)C2(C)C"
property = "mitochondrial superoxide"
value = 1.27

[[record]]
compound = "Cc1ccc(S(=O)(=O)Nc2nc3ccccc3nc2Nc2ccc3nsnc3c2)cc1"
property = "mitochondrial superoxide"
value = 1.56

[[record]]
compound = "CN1CCN(S(=O)(=O)c2ccc(-c3cnc(N)c(C(=O)Nc4cccnc4)n3)cc2)CC1"
property = "mitochondrial superoxide"
value = 1.63

[[record]]
compound = "C[C@H](NC(=O)/C(C#N)=C/c1cccc(Br)n1)c1ccccc1"
property = "mitochondrial superoxide"
value = 1.5


Exercise: # return recorded mitochondrial superoxide for input c1cncc(CN2CCC(n3ncc4c(N5CCOCC5)nc(-c5ccc6[nH]ccc6c5)nc43)CC2)c1
Key: 1.66

Exercise: # return recorded mitochondrial superoxide for input Nc1nc(Nc2ccc(S(N)(=O)=O)cc2)nn1C(=O)c1c(F)cccc1F
Key: 1.11

Exercise: # return recorded mitochondrial superoxide for input O=C(Nc1ccc(OC(F)(F)F)cc1)c1sccc1NCc1ccnc2ccccc12
Key: 1.25

Exercise: # return recorded mitochondrial superoxide for input COc1ccc(S(=O)(=O)N(C(C)=O)c2ccccc2/C=C/c2cc[n+]([O-])cc2)cc1
Key: 1.32

Exercise: # return recorded mitochondrial superoxide for input Cn1c(=O)n(-c2ccc(C(C)(C)C#N)cc2)c2c3cc(-c4cnc5ccccc5c4)ccc3ncc21
Key: 1.61

Exercise: # return recorded mitochondrial superoxide for input C#Cc1cccc(Nc2ncnc3cc(OCCOC)c(OCCOC)cc23)c1 [Erlotinib HCl (OSI-744)]
Key: 1.76

Exercise: # return recorded mitochondrial superoxide for input O=c1cc(N2CCOCC2)oc2c1ccc1ccccc12
Key: 1.17

Exercise: # return recorded mitochondrial superoxide for input C[C@@H]1COCCN1c1cc(C2(S(C)(=O)=O)CC2)nc(-c2cccc3[nH]ccc23)n1
Key: 1.34

Exercise: # return recorded mitochondrial superoxide for input N#CC1(c2ccc(NC(=O)c3cccnc3NCc3ccncc3)cc2)CCCC1
Key: 1.36
